# Test system: Vero cells
# Method Notes: Cytotoxicity assay on Vero cells
# Type: cell-based
# Assay Conditions: 96 h, concentration reducing cell viability to 50%
# Experimental: The Vero cells treated with the test compounds were incubated at 37 °C for 96 h. After incubation, the cells were harvested and counted.
Output schema: class label derived from TC50. Mapping: bottom range: < 50 µM; center range: ≥ 50 µM and < 200 µM; top range: ≥ 200 µM

Example entries and their recorded answers appear below.
- Chemical Structure: "CC(C)(C)c1ccc(OCCCCCCN2CCN(c3nccs3)CC2)cc1"
  Cat: "bottom range"
- Chemical Structure: "COC(=O)c1ccc(OCCC2CCN(c3cc(Cl)nnc3Cl)CC2)cc1"
  Cat: "center range"
- Chemical Structure: "COc1ccc(OCCCCCN2CCN(c3nccs3)CC2)cc1"
  Cat: "top range"
- Chemical Structure: "Clc1cc(N2CCN(CCOc3ccc(-n4cnnc4)cc3)CC2)c(Cl)nn1"
  Cat: "center range"
- Chemical Structure: "CCOc1ccc(OCCCCCN2CCN(c3nccs3)CC2)cc1"
  Cat: "center range"

Category of `CCc1ccc(OCCCCCCN2CCN(c3nccs3)CC2)cc1.Cl` , please. center range

In plain terms, what class is `CCOc1ccc(OCCN2CCN(c3cc(Cl)nnc3Cl)CC2)cc1` ? center range

// return the class label for `CCOC(=O)c1ccc(OCCC2CCN(c3ccnnc3Cl)CC2)nc1` top range

Please let me know in which category the item `CCCCc1ccc(OCCN2CCN(c3cc(Cl)nnc3Cl)CC2)cc1` belongs. bottom range

Just checking, what class would you give `CCOc1ccc(OCCCCCCN2CCN(c3nccs3)CC2)cc1.Cl` here? center range

* * *

Listed next: entries and their corresponding melting point.

- Chemical Structure: "CCOc1ccc(OCCCCCN2CCN(c3nccs3)CC2)cc1"
  melting point: "79 to 81 °C"
- Chemical Structure: "CC(C)c1ccc(OCCCCCCN2CCN(c3nccs3)CC2)cc1.Cl"
  melting point: "135 to 137 °C"

Give the reported melting point for this compound. `CC(C)(C)c1ccc(OCCCCCCN2CCN(c3nccs3)CC2)cc1` 30 to 32 °C

Item `CCOc1ccc(OCCCCCCN2CCN(c3nccs3)CC2)cc1.Cl` : provide melting point 222 to 224 °C

Report melting point for `CCc1ccc(OCCCCCCN2CCN(c3nccs3)CC2)cc1.Cl` 240 to 242 °C

* * *

# System: EV71
# Method Notes: Neutralization test: inhibition of EV71-induced CPE on Vero cells
# Format: cell-based, Enterovirus 71 (Shenzhen 98, shzh01-8)
# Assay Conditions: Enterovirus A, EV71, Vero, CPE on Vero cells, 100 TCID50, Reed-Muench
Recorded Endpoint: IC50 (µM)
Give the quantity in µM, number only.

The following molecules have reported results that may help.
- Molecule: "COc1ccc(OCCCCCN2CCN(c3nccs3)CC2)cc1 [Compound 8a]"
  IC50, µM: 100
- Molecule: "CC(C)c1ccc(OCCCCCCN2CCN(c3nccs3)CC2)cc1.Cl [Compound 8e]"
  IC50, µM: 4.28
- Molecule: "CCOc1ccc(OCCCCCN2CCN(c3nccs3)CC2)cc1 [Compound 8b]"
  IC50, µM: 21
- Molecule: "CCOc1ccc(OCCCCCCN2CCN(c3nccs3)CC2)cc1.Cl [Compound 8c]"
  IC50, µM: 4.3
- Molecule: "CCc1ccc(OCCCCCCN2CCN(c3nccs3)CC2)cc1.Cl [Compound 8d]"
  IC50, µM: 4.4

Complete the entry with IC50 for CCCCc1ccc(OCCN2CCN(c3cc(Cl)nnc3Cl)CC2)cc1 [Compound 9a] 1.2

Please look at this molecule and report its IC50: CCOC(=O)c1ccc(OCCC2CCN(c3ccnnc3Cl)CC2)nc1 [Compound 9f] 25.4

For the molecule Clc1cc(N2CCN(CCOc3ccc(-n4cnnc4)cc3)CC2)c(Cl)nn1 [Compound 9b] , give its measured IC50 value. 21.6

Tell me measured IC50 for CC(C)(C)c1ccc(OCCCCCCN2CCN(c3nccs3)CC2)cc1 [Compound 8f] please. 3.9

* * *

# Tested on: Vero cells
# Method Notes: Cytotoxicity assay on Vero cells
# Type: cell-based
Documented TC0 across a set of molecules
Write it as a number; the unit µM goes unstated.

These solved cases illustrate the format of a correct answer.
- Molecule: "CCOc1ccc(OCCCCCN2CCN(c3nccs3)CC2)cc1 [Compound 8b]"
  Target Or Test System: "Vero cells"
  Measure Unit: "µM"
  Test Value: 33.3
- Molecule: "CC(C)(C)c1ccc(OCCCCCCN2CCN(c3nccs3)CC2)cc1 [Compound 8f]"
  Target Or Test System: "Vero cells"
  Measure Unit: "µM"
  Test Value: 7.8
- Molecule: "COc1ccc(OCCCCCN2CCN(c3nccs3)CC2)cc1 [Compound 8a]"
  Target Or Test System: "Vero cells"
  Measure Unit: "µM"
  Test Value: 138
- Molecule: "CCCCc1ccc(OCCN2CCN(c3cc(Cl)nnc3Cl)CC2)cc1 [Compound 9a]"
  Target Or Test System: "Vero cells"
  Measure Unit: "µM"
  Test Value: 7.7
- Molecule: "CCOC(=O)c1ccc(OCCC2CCN(c3ccnnc3Cl)CC2)nc1 [Compound 9f]"
  Target Or Test System: "Vero cells"
  Measure Unit: "µM"
  Test Value: 128
- Molecule: "CCc1ccc(OCCCCCCN2CCN(c3nccs3)CC2)cc1.Cl [Compound 8d]"
  Target Or Test System: "Vero cells"
  Measure Unit: "µM"
  Test Value: 28.0

Now consider a different molecule.
Please look at this molecule and report its TC0: CC(C)c1ccc(OCCCCCCN2CCN(c3nccs3)CC2)cc1.Cl [Compound 8e] 6.8

* * *

# Test system: EV71
# Method Notes: Neutralization test: inhibition of EV71-induced CPE on Vero cells
# Format: cell-based, Enterovirus 71 (Shenzhen 98, shzh01-8)
# Assay Conditions: CPE on Vero cells, 100 TCID50, Reed-Muench
# Description: The anti-EV71 activity, anti-CVA16 activity, and cytotoxicity of the compounds on the EV71 test strain (Shenzhen 98, shzh01-8) and CVA16 (laboratory viral culture) were evaluated by using cell culture cytopathic effect assays. This assay measured the ability of the test compounds to inhibit the CPE induced by EV71 and CVA16 on Vero cells. The 96-well tissue culture plates were seeded with 20,000 Vero cells/mL. The plates were incubated for 24 h at 37 °C. […]
Recorded Endpoint: pIC50
The scale used: pIC50 is minus the common logarithm of the concentration in molar units.

Please list pIC50 recorded for the compound `CC(C)c1ccc(OCCCCCCN2CCN(c3nccs3)CC2)cc1.Cl` 5.37

* * *

# Tested on: Vero cells
# Method Notes: Cytotoxicity assay on Vero cells
# Format: cell-based
Catalogue of molecules with associated TC0
Report the value in µM with no unit label.

Indicate the recorded TC0 value for this molecule: `COC(=O)c1ccc(OCCC2CCN(c3cc(Cl)nnc3Cl)CC2)cc1` 30.5

Quickly give me recorded TC0 for `CCOc1ccc(OCCCCCCN2CCN(c3nccs3)CC2)cc1.Cl` 6.8

For the molecule `CCOc1ccc(OCCN2CCN(c3cc(Cl)nnc3Cl)CC2)cc1` , give its measured TC0 value. 31.5
